PROTOCOL_DESCRIPTION: ATG_NRF2_ARE_CIS: Attagene CIS-FACTORIAL HepG2 Assay for human Nuclear Factor Erythroid 2 Related Factor 2 (NFR2) response to Antioxidant Response Elements (ARE) (AID 2282992)
CONDITION_DESCRIPTION: HepG2 Attagene ARE/NRF2 reporter, transcription factor activity; actives raise or lower the signal
Activity calls are given as the source filed them. The calls were made as follows: active = hit-call score of the fitted dose curve at least 0.9, where 1 is the maximum; inactive = score below 0.9.
Form entry, call: pick from active, inactive

MOLECULE | DISCRETE_LABEL
O=S(=O)(c1ccc(Cl)cc1)c1cc(Cl)c(Cl)cc1Cl | active
COc1ccc(N)cc1 | inactive

Prompt: Status in this test for COCCl ?
Response: inactive

Prompt: Status in this test for CCC(C)(C#N)N=NC(C)(C#N)CC (stereo not given) ?
Response: inactive

Prompt: Status in this test for C=CC(Cl)CCl (stereo not given) ?
Response: active

Prompt: Status in this test for Oc1cc(Cl)c(Cl)cc1Cl ?
Response: inactive

Prompt: Status in this test for C[C@]12CC[C@@H](O)C[C@@H]1CC[C@@H]1[C@@H]2CC[C@]2(C)C(=O)CC[C@@H]12 ?
Response: inactive

Prompt: Status in this test for CCOC(=O)Cc1ccccc1 ?
Response: inactive

Prompt: Status in this test for CC(C)(c1ccccc1)c1cc(-n2nc3ccccc3n2)c(O)c(C(C)(C)c2ccccc2)c1 ?
Response: inactive

Prompt: Status in this test for CCCCC(CC)C(=O)Cl (stereo not given) ?
Response: inactive

Prompt: Status in this test for ClCc1ccccc1Cl ?
Response: active

Prompt: Status in this test for Oc1cccc(-c2ccccc2)c1 ?
Response: active

src = PubChem BioAssay (EPA / NIEHS)
